The reported measurements were obtained from patent US20260209316A1.

Molecular target: T1, SUDV GP on pseudotyped lentiviral vector (Sudan virus (SUDV), UniProt Q7T9D9 33-676)
T1 sequence: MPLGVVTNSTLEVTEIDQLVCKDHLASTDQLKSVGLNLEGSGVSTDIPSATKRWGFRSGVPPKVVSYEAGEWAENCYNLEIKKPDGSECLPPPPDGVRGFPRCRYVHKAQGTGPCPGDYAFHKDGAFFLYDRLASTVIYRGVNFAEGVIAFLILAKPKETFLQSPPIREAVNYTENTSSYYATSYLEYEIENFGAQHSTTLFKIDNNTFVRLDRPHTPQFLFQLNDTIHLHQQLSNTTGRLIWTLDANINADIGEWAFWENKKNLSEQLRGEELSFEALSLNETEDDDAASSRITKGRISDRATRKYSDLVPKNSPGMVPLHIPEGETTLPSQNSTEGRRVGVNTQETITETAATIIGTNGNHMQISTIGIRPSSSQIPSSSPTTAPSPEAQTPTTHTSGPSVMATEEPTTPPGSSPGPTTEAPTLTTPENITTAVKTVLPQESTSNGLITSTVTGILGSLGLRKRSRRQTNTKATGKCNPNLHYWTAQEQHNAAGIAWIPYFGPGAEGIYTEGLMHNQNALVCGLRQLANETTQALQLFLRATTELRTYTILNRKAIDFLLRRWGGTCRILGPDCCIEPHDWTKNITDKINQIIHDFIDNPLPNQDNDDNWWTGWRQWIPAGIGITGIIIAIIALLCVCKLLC
Assay: cell-based or functional assay
quantityKind: IC50, microneutralization of GP-pseudotyped lentiviral vector on HEK293 cells (µg/mL)
The reply should contain only the number, in µg/mL.

Recorded results for 2 binders are shown here.
| binder | reportedMeasurement |
| --- | --- |
| antibody 541S (antibody, V domains shown) VH: QVQLVQSGAEVKKPGASVKVSCKASGYTFTNYAITWVRQAPGQGLEWMGWISAFNGQINYAQKFQGRVAMTTDTSTSTAYMELRSLRSDDTAVYYCARAPPMWFSGAKFDYWGQGTLVTVSS VL: QSVLTQPPSVSGTPGQRVTISCSGSSSNIGSNTVNWYQQLPGTAPKLLIYSNDQRPSGVPDRFSGSKSGTSASLAISGLRSEDEADYYCAAWDETLRRVFGGGTRLTVL | 0.478 |
| antibody 354S (antibody, V domains shown) VH: QVQLVQSGAEVKKPGASVKVSCKASGYSFASYYIHWVRQAPGQGLEWMGIINPSGGTTSYAQKFQGRVTMTRDTSTSTVYMELSSLGSEDTAVYYCARIVDRVTIYLNGVDNYWGQGTLVTVSS VL: EIVMTQSPATLSVSPGERVTLSCRASQSVSSNLAWFQQTPGQAPRLLIYGASTRASGVPARFSGSGSGTEFTLTISSLQSEDFAVYYCLQYNNWPPGWKYGFGQGTKLEIK | 0.03 |

Note down IC50, microneutralization of GP-pseudotyped lentiviral vector on HEK293 cells recorded for antibody 233S (antibody, V domains shown) VH: EVQLVESGGGLGQPGGSLRLSCAASGFKFKIFGMNWVRQAPGKGLEWVSYISSRSSIIYYADSVKGRFTISRDDATNSLFLQMNSLRDEDTAMYYCVRDYNLIDFVWGSLFDYWGQGILVTVSS VL: AIRMTQSPSSLSASTGDSVTITCRASQNIASYLAWYQQIPGKAPKLLIYVASTLQSGVPSRFSGSGSGTDFTLTISSLQSEDFATYYCQQYYRYPPTFGQGTKVEIK
0.167
